- Target Of Assay: ERα (Homo sapiens, UniProt P03372)
- Sequence (P03372 whole entry): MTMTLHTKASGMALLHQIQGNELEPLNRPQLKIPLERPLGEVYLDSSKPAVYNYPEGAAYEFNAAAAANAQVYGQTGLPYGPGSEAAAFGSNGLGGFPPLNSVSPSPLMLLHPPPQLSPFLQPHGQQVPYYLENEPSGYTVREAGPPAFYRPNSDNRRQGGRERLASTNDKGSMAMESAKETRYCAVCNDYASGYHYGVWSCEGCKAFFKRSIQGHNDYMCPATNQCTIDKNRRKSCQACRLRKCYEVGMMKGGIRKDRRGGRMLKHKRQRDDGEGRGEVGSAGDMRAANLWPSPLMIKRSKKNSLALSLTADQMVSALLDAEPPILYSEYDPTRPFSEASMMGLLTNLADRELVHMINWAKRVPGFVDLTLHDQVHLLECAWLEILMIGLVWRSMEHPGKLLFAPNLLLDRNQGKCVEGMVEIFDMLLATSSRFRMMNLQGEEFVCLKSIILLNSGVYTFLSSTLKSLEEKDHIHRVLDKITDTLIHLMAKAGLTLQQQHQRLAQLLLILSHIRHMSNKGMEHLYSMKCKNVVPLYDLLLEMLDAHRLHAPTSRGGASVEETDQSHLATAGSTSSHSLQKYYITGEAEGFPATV
- Experiment Summary: Degradation of ERα in T-47D cells (immunoblotting, 4 h)
- Type: cell-based
- Design: host or cells: T-47D
- Assay Context: 10nM compound
Observed Property: Degradation rate (%) of ERα in T-47D cells
Only the number, expressed in %, is required.

Ask: Looking for the measured Degradation rate (%) of ERα in T-47D cells of O=C1CC[C@H](N2Cc3cc(N4CCN(CC5CCN(c6ccc([C@@H]7c8ccc(O)cc8CC[C@@H]7c7ccccc7)cc6)CC5)CC4)ccc3C2=O)C(=O)N1 [ARV-471, reference compound] , can you help?
Reply: 85

Ask: Please answer likewise for O=C1CCC(N2Cc3c(ccc4c3OCC43CCN(CC(=O)N4CCN(c5ccc([C@@H]6c7ccc(O)cc7CC[C@@H]6c6ccccc6)cc5)CC4)CC3)C2=O)C(=O)N1 (some centres unmarked)
Reply: 57

Ask: Please answer likewise for O=C1CCC(N2Cc3cc4c(cc3C2=O)OC2(CC4)CCN(C3CC4(CCN(c5ccc([C@@H]6c7ccc(O)cc7CC[C@@H]6c6ccccc6)cc5)CC4)C3)CC2)C(=O)N1 (some centres unmarked)
Reply: 20

Ask: Please answer likewise for O=C1CCC(N2Cc3c(ccc4c3OCC43CCN(C(=O)C4CC5(CCN(c6ccc([C@@H]7c8ccc(O)cc8CC[C@@H]7c7ccccc7)cc6)CC5)C4)CC3)C2=O)C(=O)N1 (some centres unmarked)
Reply: 74

Ask: Please answer likewise for O=C1CCC(N2Cc3c(ccc4c3OCC43CCN(C4CC5(C4)CN(c4ccc([C@@H]6c7ccc(O)cc7CC[C@@H]6c6ccccc6)cc4)C5)CC3)C2=O)C(=O)N1 (some centres unmarked)
Reply: 8

Ask: Please answer likewise for N#CC1(C(=O)N2CCC(N3CCC4(CC3)COc3c4ccc4c3CN(C3CCC(=O)NC3=O)C4=O)CC2)CCN(c2ccc([C@@H]3c4ccc(O)cc4CC[C@@H]3c3ccccc3)cc2)CC1 (some centres unmarked)
Reply: 72

Ask: Please answer likewise for CC1(C(=O)N2CCC(N3CCC4(CC3)COc3c4ccc4c3CN(C3CCC(=O)NC3=O)C4=O)CC2)CCN(c2ccc([C@@H]3c4ccc(O)cc4CC[C@@H]3c3ccccc3)cc2)CC1 (some centres unmarked)
Reply: 79

Ask: Please answer likewise for CCC(C(=O)N1CCC2(CC1)COc1c2ccc2c1CN(C1CCC(=O)NC1=O)C2=O)N1CCC2(CCN(c3ccc([C@@H]4c5ccc(O)cc5CC[C@@H]4c4ccccc4)cc3)CC2)C1 (some centres unmarked)
Reply: 68

Ask: Please answer likewise for O=C1CCC(N2C(=O)c3ccc4c(c3C2=O)OC2(CC4)CCN(C3CCC4(CC3)CN(c3ccc([C@@H]5c6ccc(O)cc6CC[C@@H]5c5ccccc5)cc3)C4)CC2)C(=O)N1 (some centres unmarked)
Reply: 21

Ask: Please answer likewise for O=C1CCC(N2C(=O)c3cc4c(cc3C2=O)OC2(CC4)CCN(c3ccc(C4c5ccc(O)cc5CCC4c4ccccc4)cc3)CC2)C(=O)N1 (centres unmarked)
Reply: -14

Ask: Please answer likewise for O=C1CCC(N2Cc3c(ccc4c3OCC43CCN(C4CCC(Oc5ccc([C@@H]6c7ccc(O)cc7CC[C@@H]6c6ccccc6)cc5)CC4)CC3)C2=O)C(=O)N1 (some centres unmarked)
Reply: 11

----------
Consider the following molecules; for each one, report its Degradation rate (%) of ERα in MCF-7 cells.
- Target Of Assay: UniProt:P03372
- Experiment Summary: Degradation of ERα in MCF-7 cells (immunoblotting, 4 h)
- Type: cell-based
- Assay Context: 10nM compound
Be sure to follow the number with its unit.

Ask: Looking for the measured Degradation rate (%) of ERα in MCF-7 cells of O=C1CC[C@H](N2Cc3cc(N4CCN(CC5CCN(c6ccc([C@@H]7c8ccc(O)cc8CC[C@@H]7c7ccccc7)cc6)CC5)CC4)ccc3C2=O)C(=O)N1 [ARV-471, reference compound] , can you help?
Reply: 76%

Ask: Please answer likewise for C[C@@H]1Cc2c([nH]c3ccccc23)[C@@H](c2c(F)cc(N3CC4(CCC(N5CCC6(CC5)COc5c6ccc6c5CN(C5CCC(=O)NC5=O)C6=O)CC4)C3)cc2F)N1CC(F)F (stereo partly drawn) [A104]
Reply: 70%

Ask: Please answer likewise for O=C1CCC(N2C(=O)c3cc4c(cc3C2=O)OCC2(CCN(C3CCC5(CC3)CN(c3ccc(C6c7ccc(O)cc7CCC6c6ccccc6)cc3)C5)CC2)C4)C(=O)N1 (stereo not drawn) [A14]
Reply: 5%

Ask: Please answer likewise for O=C1CCC(N2Cc3cc4c(cc3C2=O)CCC2(CN(C3CCN(C5CCN(c6ccc([C@@H]7c8ccc(O)cc8CC[C@@H]7c7ccccc7)cc6)CC5)CC3)C2)O4)C(=O)N1 (stereo partly drawn) [A53]
Reply: 45%

Ask: Please answer likewise for CC1Cc2c(ccc3[nH]ncc23)C(c2c(F)cc(N3CCC4(CC3)CC(N3CCC(N5CCC6(CC5)COc5c6ccc6c5CN(C5CCC(=O)NC5=O)C6=O)C(F)C3)C4)cc2F)N1CC(F)F (stereo not drawn) [G22]
Reply: 65%

Ask: Please answer likewise for O=C1CCC(N2Cc3cc4c(cc3C2=O)OC2(CC4)CN(C(=O)CN3CCC4(CC3)CCN(c3ccc([C@@H]5c6ccc(O)cc6CC[C@@H]5c5ccccc5)cc3)CC4)C2)C(=O)N1 (stereo partly drawn) [A70]
Reply: 71%

Ask: Please answer likewise for O=C1CCC(N2C(=O)c3cc4c(cc3C2=O)OCC2(CCN(C3CC5(CCN(c6ccc(C7c8ccc(O)cc8CCC7c7ccccc7)cc6)CC5)C3)CC2)C4)C(=O)N1 (stereo not drawn) [A13]
Reply: -9%

Ask: Please answer likewise for O=C1CCC(N2Cc3c(ccc4c3OCC43CCN(CC(=O)N4CCC5(CCN(c6ccc([C@@H]7c8ccc(O)cc8CC[C@@H]7c7ccccc7)cc6)C5)C4)CC3)C2=O)C(=O)N1 (stereo partly drawn) [H19]
Reply: 21%

Ask: Please answer likewise for C[C@@H]1Cc2c(ccc3[nH]ncc23)C(c2ccc(N3CCC(N4CC[C@@H](N5CCC6(CC5)COc5c6ccc6c5CN(C5CCC(=O)NC5=O)C6=O)[C@@H](F)C4)CC3)cn2)N1CC(F)(F)F (stereo partly drawn) [H57]
Reply: 60%

Ask: Please answer likewise for C[C@@H]1Cc2c(ccc3[nH]ncc23)[C@@H](c2c(F)cc(N3CCC4(CCN(C(=O)CN5CCC6(CC5)COc5c6ccc6c5CN(C5CCC(=O)NC5=O)C6=O)CC4)CC3)cc2F)N1CC(F)F (stereo partly drawn) [C13]
Reply: 62%

Ask: Please answer likewise for O=C1CCC(N2Cc3c(ccc4c3OCC43CCN(C(=O)C4CN(CC5CCN(c6ccc([C@@H]7c8ccc(O)cc8CC[C@@H]7c7ccccc7)cc6)CC5)C4)CC3)C2=O)C(=O)N1 (stereo partly drawn) [J9]
Reply: 69%

Ask: Please answer likewise for CN(C[C@H]1CC[C@H](C(=O)N2CCC3(CC2)COc2c3ccc3c2CN(C2CCC(=O)NC2=O)C3=O)CC1)[C@@H]1CCN(c2ccc([C@@H]3c4ccc(O)cc4CC[C@@H]3c3ccccc3)cc2)C[C@@H]1F (stereo partly drawn) [D12]
Reply: 61%

Ask: Please answer likewise for O=C1CCC(N2Cc3cc4c(cc3C2=O)OC2(CC4)CCN(C3CCC4(CC3)CCN(c3ccc(C5c6ccc(O)cc6CCC5c5ccccc5)cc3)CC4)CC2)C(=O)N1 (stereo not drawn) [A22]
Reply: 13%

Ask: Please answer likewise for O=C1CCC(N2Cc3cc4c(cc3C2=O)CCC2(CN(C(=O)C3CC5(CCN(c6ccc([C@@H]7c8ccc(O)cc8CC[C@@H]7c7ccccc7)cc6)CC5)C3)C2)O4)C(=O)N1 (stereo partly drawn) [A48]
Reply: 11%

Ask: Please answer likewise for CN(C)C(=O)[C@H]1CC(N2CCC3(CC2)COc2c3ccc3c2CN(C2CCC(=O)NC2=O)C3=O)CCN1C1CC2(CCN(c3ccc([C@@H]4c5ccc(O)cc5CC[C@@H]4c4ccccc4)cc3)CC2)C1 (stereo partly drawn) [K32]
Reply: 88%

Ask: Please answer likewise for C[C@@H]1Cc2cc(O)ccc2[C@@H](c2c(F)cc(N3CCC(C(=O)N4CCC(N5CCC6(CC5)COc5c6ccc6c5CN(C5CCC(=O)NC5=O)C6=O)CC4)CC3)cc2F)N1CC(F)F (stereo partly drawn) [I2]
Reply: 61%

Ask: Please answer likewise for O=C1CCC(N2C(=O)c3cc4c(cc3C2=O)OC2(CC4)CN(CC3CCN(c4ccc([C@@H]5c6ccc(O)cc6CC[C@@H]5c5ccccc5)cc4)CC3)C2)C(=O)N1 (stereo partly drawn) [H1]
Reply: -16%

Ask: Please answer likewise for C[C@@H]1CN(C(=O)C2CCN(c3cc(F)c(C4c5ccc6[nH]ncc6c5C[C@@H](C)N4CC(F)F)c(F)c3)CC2)CCC1N1CCC2(CC1)COc1c2ccc2c1CN(C1CCC(=O)NC1=O)C2=O (stereo partly drawn) [B40]
Reply: 61%

Ask: Please answer likewise for O=C1CCC(N2Cc3cc4c(cc3C2=O)CCC2(CN(C(=O)C3CCC5(CC3)CN(c3ccc([C@@H]6c7ccc(O)cc7CC[C@@H]6c6ccccc6)cc3)C5)C2)O4)C(=O)N1 (stereo partly drawn) [A46]
Reply: -26%

Ask: Please answer likewise for O=C1CCC(N2Cc3c(ccc4c3OC3(CC4)CCN(C4CCC5(CC4)CN(c4ccc([C@@H]6c7ccc(O)cc7CC[C@@H]6c6ccccc6)cc4)C5)CC3)C2=O)C(=O)N1 (stereo partly drawn) [L22]
Reply: 18%

Ask: Please answer likewise for CN(C(=O)CN1CCC2(CC1)COc1c2ccc2c1CN(C1CCC(=O)NC1=O)C2=O)C1CCC2(CC1)CN(c1ccc([C@@H]3c4ccc(O)cc4CC[C@@H]3c3ccccc3)cc1)C2 (stereo partly drawn) [H49]
Reply: 71%
